- TESTED SYSTEM: PARP-2 (Homo sapiens (Human))
- Sequence (Q9UGN5 whole entry): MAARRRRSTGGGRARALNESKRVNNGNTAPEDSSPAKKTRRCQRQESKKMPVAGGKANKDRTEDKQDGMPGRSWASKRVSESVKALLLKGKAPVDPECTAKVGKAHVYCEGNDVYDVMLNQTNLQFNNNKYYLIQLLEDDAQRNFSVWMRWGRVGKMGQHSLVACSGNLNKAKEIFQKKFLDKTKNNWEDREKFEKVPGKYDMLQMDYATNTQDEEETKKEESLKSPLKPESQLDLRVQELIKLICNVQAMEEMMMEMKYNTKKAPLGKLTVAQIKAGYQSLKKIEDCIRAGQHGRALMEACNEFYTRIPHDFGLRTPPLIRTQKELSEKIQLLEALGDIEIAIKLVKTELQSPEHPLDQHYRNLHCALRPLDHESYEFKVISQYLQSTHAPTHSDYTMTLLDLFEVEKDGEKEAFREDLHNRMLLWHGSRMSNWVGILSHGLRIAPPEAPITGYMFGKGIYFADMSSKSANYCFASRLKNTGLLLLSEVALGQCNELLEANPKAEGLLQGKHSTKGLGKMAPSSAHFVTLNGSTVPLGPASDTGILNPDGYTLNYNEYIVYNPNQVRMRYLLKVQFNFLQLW
- ASSAY SETUP: read-out: PARP-2 (DC50 μM); probe P1
READOUT KIND: DC50 (µM)

Examples with their reported DC50 follow.
> print(dat)
                                   compound  obs.value
1  Cn1c2cccc(C(N)=O)c2c(=O)n1C1CCN(Cc2ccco2)CC1       2.29
2  NC(=O)c1cccc2[nH]n(C3CCN(C4CCCC4)CC3)c(=O)c12          2
3  NC(=O)c1cc(F)cc2[nH]n(C3CCN(C4CCCCC4)CC3)c(=O)c12       5.94
4  NC(=O)c1cccc2[nH]n(C3CCN(C4CCC4)CC3)c(=O)c12       2.57

(A) NC(=O)c1cccc2[nH]n(C3CCNCC3)c(=O)c12
(B) Cn1c2cccc(C(N)=O)c2c(=O)n1C1CCN(CC2CC=CCC2)CC1 (stereo not drawn)
(C) NC(=O)c1cc(F)cc2[nH]n(C3CCNCC3)c(=O)c12
Input: Put the entries in order of DC50, starting with the largest number. Response field: labels, in requested order.
Output: B, A, C
(B: 4.19 µM, A: 1.5 µM, C: 0.5 µM)
